From: ChEMBL document CHEMBL4513216

experiment: Toxicity liver stage against HepG2, at 10uM; assay type: cell-based; set-up: test concentration 10 uM, cell line HepG2-A16-CD81EGFP; details: human, HepG2-A16-CD81EGFP cells; read-out: INHIBITION
OBSERVATION_TYPE: cytotoxicity at 10 µM (%)
Hi! Could you send only the number? It should be in %, unit omitted.

CCc1noc(CCCC(=O)N2CCCC(c3ccn[nH]3)C2)n1 (configuration not stated); -0.799

Note: attention shifts to another entry.
[Q] State, in one line, measured cytotoxicity at 10 µM of CCCn1c(C)c(CC(=O)NCC(C)O)c2c1CC(C)(C)CC2=O (configuration not stated)
[A] -7.57

* * *

Parameter cytotoxicity at 10 µM: see the listing below.
experiment: Toxicity liver stage against HepG2, at 10uM; assay type: cell-based; set-up: test concentration 10 uM, cell line HepG2-A16-CD81EGFP; conditions: human, HepG2-A16-CD81EGFP cells; read-out: INHIBITION

CCc1ncnc2c1CCN(Cc1cccs1)CC2; 4.98%
Cn1cc(CNC2CCc3c(ccc(=O)n3Cc3ccncc3)C2)cn1 (stereo unspecified); -102%
CCOCc1nc2c(c(N(C)Cc3nonc3C)n1)CCNCC2; 6.7%
COc1ccccc1C(=O)N1CC(Cc2nccc3ccn(C)c23)C1; -0.619%
Cc1ncsc1CN1C[C@H](C(=O)NCC2CC2)[C@@H]2CCO[C@@H]2C1; -3.17%
CCN1C[C@@H]2C[C@H](C(=O)NCc3cccnc3)[C@H](C1)O2; 2.01%
O=C(NC1CC1)N1CCC2(CC1)C(=O)NCCN2Cc1ccccc1; -0.685%
COCC(=O)N(Cc1cccnc1)CC1CCCN(C2CCCCC2)C1 (stereo unspecified); 1.72%
CC(C)NC(=O)N1CCCC2(CCN(c3ccccc3)C2=O)C1 (stereo unspecified); -2.22%
COC(=O)C(NC(=O)COC1CCCC1)c1cc(F)ccc1F (stereo unspecified); -9.06%

Note: attention shifts to another entry.
[Q] State, in one line, measured cytotoxicity at 10 µM of CN(C)C(=O)COC1COC2(CCN(c3cnccn3)CC2)C1 (stereo unspecified)
[A] -6.29%

* * *

experiment: Toxicity liver stage against HepG2, at 10uM; format: cell-based; set-up: test concentration 10 uM, cell line HepG2-A16-CD81EGFP; conditions: human, HepG2-A16-CD81EGFP cells; read-out: INHIBITION
OBSERVATION_TYPE: cytotoxicity at 10 µM (%)
Hi! Could you send only the number? It should be in %, unit omitted.

CC1CN(c2ncnc3ccccc23)CCO1 (stereo unspecified); 23.6
Cc1ccc(NC2CCN(C(=O)c3sccc3C3CC3)CC2)nn1; -4.51
CCn1ccc(NC(=O)c2cc(C)on2)n1; -2.23
CC(C)COCCNC1CCN(c2ccccn2)CC1; -2.12
C=C(C)COc1ccccc1C(=O)N(C)C(C)c1c(C)n[nH]c1C (stereo unspecified); 3.23

Note: attention shifts to another entry.
[Q] State, in one line, measured cytotoxicity at 10 µM of COc1ncccc1NC(=O)C1CCN(S(C)(=O)=O)CC1
[A] -5.74

* * *

assay: Toxicity liver stage against HepG2, at 10uM; assay type: cell-based; set-up: test concentration 10 uM, cell line HepG2-A16-CD81EGFP; conditions: human, HepG2-A16-CD81EGFP cells; read-out: INHIBITION
OBSERVATION_TYPE: cytotoxicity at 10 µM (%)
Hi! Could you send only the number? It should be in %, unit omitted.

Cc1ccc(-c2cc(CNCCn3cc(C)cn3)on2)cc1; -7.22

[Q] State, in one line, measured cytotoxicity at 10 µM of COc1ccc(CCC(=O)N(C)CCN2CCOCC2)cc1OC
[A] 7.83

[Q] State, in one line, measured cytotoxicity at 10 µM of CN(C)CCn1c(=O)oc2ccc(NC(=O)C3CCCO3)cc21 (stereo not drawn)
[A] 0.743

[Q] State, in one line, measured cytotoxicity at 10 µM of CSCc1cc(F)ccc1CNC(=O)N1CCOCC1
[A] 8.06

[Q] State, in one line, measured cytotoxicity at 10 µM of CCc1nc(C(=O)N2CCOCC2)nn1-c1ccccc1Cl
[A] -9.29

[Q] State, in one line, measured cytotoxicity at 10 µM of COc1cccc(-n2cc(CN(C)C(=O)c3cnc(O)cn3)cn2)c1
[A] -14.7

[Q] State, in one line, measured cytotoxicity at 10 µM of COCC(=O)NC(C)Cc1cccc(Br)c1 (stereo not drawn)
[A] -8.21

[Q] State, in one line, measured cytotoxicity at 10 µM of CCOC(C)c1noc(CN(C)C(=O)c2cc3ccccn3c2)n1 (stereo not drawn)
[A] 7.17

[Q] State, in one line, measured cytotoxicity at 10 µM of O=C1COC2(CCN(Cc3ccoc3)CC2)CN1c1ccccc1
[A] -122

[Q] State, in one line, measured cytotoxicity at 10 µM of COCC(NC(=O)c1cnn(C)c1)c1cccc(C(F)(F)F)c1 (stereo not drawn)
[A] 1.73

[Q] State, in one line, measured cytotoxicity at 10 µM of CCn1cnnc1C1CCN(C(=O)CC(C)n2cccc2)CC1 (stereo not drawn)
[A] -1.49

[Q] State, in one line, measured cytotoxicity at 10 µM of CC(c1cccc(Cl)c1)N(C)Cc1nc2c(cnn2C)c(=O)[nH]1 (stereo not drawn)
[A] -10.5

[Q] State, in one line, measured cytotoxicity at 10 µM of CN(C)C(=O)N1CCN(C(=O)c2ccn3cncc3c2)CC1
[A] -9.96

[Q] State, in one line, measured cytotoxicity at 10 µM of Cc1ccc(CN2CCCC3(CCC(=O)N3)CC2)s1 (stereo not drawn)
[A] -5.84

[Q] State, in one line, measured cytotoxicity at 10 µM of Cc1ccsc1[C@@H]1CCN(C(=O)CCC(=O)c2ccccc2)C[C@H]1O
[A] 3.52

[Q] State, in one line, measured cytotoxicity at 10 µM of CC(C)(C)NC(=O)CN1CCCN(Cc2ccc(C#N)cc2)CC1
[A] -4.78

* * *

experiment: Toxicity liver stage against HepG2, at 10uM; type: cell-based; set-up: test concentration 10 uM, cell line HepG2-A16-CD81EGFP; settings: human, HepG2-A16-CD81EGFP cells; read-out: INHIBITION
OBSERVATION_TYPE: cytotoxicity at 10 µM (%)
Hi! Could you send only the number? It should be in %, unit omitted.

Some molecules with known cytotoxicity at 10 µM results, for comparison:
Cc1cnc(C(=O)N2CCC3(CC2)CC(c2ccccc2)C(=O)N3)cn1 (stereo unspecified); 4.9
O=C(CC1CSc2nccc(=O)n21)NCc1ccco1 (stereo unspecified); -7.2
COCC(O)CNC(=O)c1cnc(-c2ccccc2)nc1O (stereo unspecified); -10.2
CCc1ncc2c(n1)CN(C(=O)CNC(=O)c1ccccc1)C2; 2.41
COCC1CN(c2ccc(C#N)c(Cl)c2)CCO1 (stereo unspecified); 4.86
COc1ccc(CN2C[C@H]3CC[C@](O)(c4ccc(C)cn4)[C@H]3C2)c(F)c1; -1.57
Cc1cnn(CCNCC(=O)NCCOc2ccccc2)c1; -14
CSCC[C@@H](CO)Nc1nc(-c2ccccn2)nc2c1c(C)nn2C; 2.7

[Q] State, in one line, measured cytotoxicity at 10 µM of CC(C)n1cc(N2CC(C(=O)N3CCCC3)CC2=O)cn1 (stereo unspecified)
[A] 3.79

[Q] State, in one line, measured cytotoxicity at 10 µM of Cc1nc(C)n(CC2CCCN2CCCc2nc3ccccc3o2)n1 (stereo unspecified)
[A] -8.58

[Q] State, in one line, measured cytotoxicity at 10 µM of CCN(CC1CCOC1)C(=O)Cn1nnn(-c2cccs2)c1=O (stereo unspecified)
[A] -49.7

* * *

Parameter cytotoxicity at 10 µM: see the listing below.
experiment: Toxicity liver stage against HepG2, at 10uM; type: cell-based; set-up: test concentration 10 uM, cell line HepG2-A16-CD81EGFP; settings: human, HepG2-A16-CD81EGFP cells; read-out: INHIBITION
// return the numeric value with its unit appended

Some molecules with known cytotoxicity at 10 µM results, for comparison:
COCC(=O)N1CCCC(C(=O)N(C)CCCc2cnn(C)c2)C1 (stereo not drawn); -137%
c1csc(CNCC2COCc3c(-c4ccsc4)nnn3C2)n1 (stereo not drawn); -113%
CCCC(C)(C)NC(=O)c1cnc(CC)s1; 10.2%
CCc1nnsc1C(=O)NCCn1nc2ccccn2c1=O; -2.04%
COCCCN(C)C(=O)c1cccc(Nc2cnccn2)c1; -8.43%

[Q] State, in one line, measured cytotoxicity at 10 µM of Cc1nc(N2CCN(c3ccccc3)CC2)c2c(n1)c(C)nn2C
[A] 7.8%

[Q] State, in one line, measured cytotoxicity at 10 µM of CCc1nnc(CN2CCN(C(=O)c3ccccn3)CC2)o1
[A] 3.49%
